All figures here come from ChEMBL document CHEMBL4483862.

Test system: Plasmodium berghei
test.name: Luciferase/luciferin-expressing antifolate-resistant parasites were used to infect a culture of HepG2 cells that were pre-incubated with compounds. Infected hepatocytes emit light due to the luciferase reaction. Assay results are presented as the percent inhibition of light emission compared to control. […]
Type: functional
condition.info: sporozoite, FFLUC_HILL_SLOPE 15.6, FFLUC_R_SQUARED 0.349, read-out: LUCIFERASE INFECTION ASSAY - IC50
measured.parameter: IC50

**Query** Return IC50 for the following compound: `Cc1ccc(CNC(=O)c2cc(-c3ccccc3)nn2-c2ccccc2)cc1`
**Result** > 10 µM

---

Test system: Plasmodium berghei
test.name: Luciferase/luciferin-expressing antifolate-resistant parasites were used to infect a culture of HepG2 cells that were pre-incubated with compounds. Infected hepatocytes emit light due to the luciferase reaction. Assay results are presented as the percent inhibition of light emission compared to control. […]
Type: functional
condition.info: sporozoite, PBLUC_HILL_SLOPE 2.55, PBLUC_R_SQUARED 0.138, read-out: LUCIFERASE INFECTION ASSAY - IC50
measured.parameter: IC50 (µM)
Give the value, in units of µM, as a plain number.

**Query** Return IC50 for the following molecule: `CCC(C)(C)c1ccc(Oc2ccc(NC(=O)COC(=O)c3ccc(Cl)c(S(N)(=O)=O)c3)cc2)cc1`
**Result** 5.78
